experimental-target: human recombinant Btk (Homo sapiens (Human), UniProt Q06187)
Sequence (Q06187 whole entry): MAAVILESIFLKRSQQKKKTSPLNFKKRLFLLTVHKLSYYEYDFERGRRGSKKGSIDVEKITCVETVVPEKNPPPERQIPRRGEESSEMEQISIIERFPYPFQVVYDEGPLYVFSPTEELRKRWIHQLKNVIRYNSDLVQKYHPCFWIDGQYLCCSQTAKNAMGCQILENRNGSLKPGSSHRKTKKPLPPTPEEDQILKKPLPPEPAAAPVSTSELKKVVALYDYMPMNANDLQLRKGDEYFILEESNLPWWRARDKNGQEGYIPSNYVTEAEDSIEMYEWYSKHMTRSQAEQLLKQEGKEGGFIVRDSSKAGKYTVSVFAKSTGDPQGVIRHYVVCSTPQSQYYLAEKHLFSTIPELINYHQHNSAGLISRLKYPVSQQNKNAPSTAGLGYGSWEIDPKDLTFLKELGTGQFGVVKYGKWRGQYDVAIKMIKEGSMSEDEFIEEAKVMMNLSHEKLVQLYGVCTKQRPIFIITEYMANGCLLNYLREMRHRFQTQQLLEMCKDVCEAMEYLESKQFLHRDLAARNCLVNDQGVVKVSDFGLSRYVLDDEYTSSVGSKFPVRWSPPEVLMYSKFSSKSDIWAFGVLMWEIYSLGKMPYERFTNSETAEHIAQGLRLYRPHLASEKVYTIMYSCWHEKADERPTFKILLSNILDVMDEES
protocol-text: Human Recombinant Btk Enzyme Assay
Format: biochemical
condition-parameters: Table 4; read-out: Example Btk IC50
parameter-measured: IC50 (nM)

Examples with answers:
[
  {
    "molecule": "C=CC(=O)N1CCc2c(cccc2-c2c(F)cc(C(N)=O)c3[nH]c4ccccc4c23)C1 (single isomer, unassigned)",
    "experimental-target": "human recombinant Btk (Homo sapiens (Human), UniProt Q06187)",
    "recorded-measurement": 0.067
  },
  {
    "molecule": "C=CC(=O)N1CCOc2c(-c3c(F)cc(C(N)=O)c4[nH]c5ccccc5c34)cccc21 (single isomer, unassigned)",
    "experimental-target": "human recombinant Btk (Homo sapiens (Human), UniProt Q06187)",
    "recorded-measurement": 0.077
  }
]

(1) C=CC(=O)N1CCSc2c(-c3c(F)cc(C(N)=O)c4[nH]c5ccccc5c34)cccc21 (single isomer, unassigned)
(2) C=CC(=O)N1CCc2c(cccc2-c2c(F)cc(C(N)=O)c3[nH]c4c(c23)CC(F)(F)CC4)C1 (single isomer, unassigned)
(3) C=CC(=O)N1CCc2c(cccc2-c2c(F)cc(C(N)=O)c3[nH]c4cc(C(F)(F)F)ccc4c23)C1 (single isomer, unassigned)
(4) C=CC(=O)N1CCCOc2c(-c3c(F)cc(C(N)=O)c4[nH]c5cc(C(F)(F)F)ccc5c34)cccc21 (single isomer, unassigned)
Query :: Please list these in order of increasing IC50. Thank you! Put the labels in the requested order and write them down.
Result :: 1, 2, 3, 4

###

experimental-target: human recombinant Btk (Homo sapiens (Human))
protocol-text: Human Recombinant Btk Enzyme Assay
Type: biochemical
condition-parameters: Table 4, Comparative Example; read-out: Comparative Example Btk IC50
pIC50: −log10 of the molar value.
parameter-measured: pIC50

(a) C=CC(=O)N1CCCOc2c(-c3c(F)cc(C(N)=O)c4[nH]c5cc(C(F)(F)F)ccc5c34)cccc21 (single isomer, unassigned) [Comparative Example 22]
(b) C=CC(=O)N1CCc2c(cccc2-c2c(F)cc(C(N)=O)c3[nH]c4ccccc4c23)C1 (single isomer, unassigned) [Comparative Example 15]
(c) C=CC(=O)N1CCOc2c(-c3c(F)cc(C(N)=O)c4[nH]c5ccccc5c34)cccc21 (single isomer, unassigned) [Comparative Example 18]
Query :: Output the listed items in decreasing order of pIC50. Reply with the labels, ordered as the question asks.
Result :: c, b, a
(c: 8.82, b: 8.40, a: 8.02)

This collection of values is drawn from patent US10023534B2.
